pIC50: −log10 of the molar value.
pIC50 data for Furin (Homo sapiens) follow.

chemical structure	pIC50
Clc1nc2n[nH]nc2nc1Cl	< 4.00
Nc1cc(N)c(N=Nc2ccc(S(=O)(=O)Nc3nccs3)cc2)cc1N=Nc1ccc(S(=O)(=O)Nc2nccs2)cc1	< 4.00
Clc1cc(OCc2nnc3sc(Cc4ccccc4)nn23)c(Cl)cc1OCc1nnc2sc(Cc3ccccc3)nn12	< 4.00

----------
Collected Cytotoxicity (TC50) values appear next to each entry.
test system: Fetal human NPCs; type: cell-based

molecule	Cytotoxicity (TC50) [µM]
Nc1cc(N)c(N=Nc2ccc(S(=O)(=O)Nc3nccs3)cc2)cc1N=Nc1ccc(S(=O)(=O)Nc2nccs2)cc1 [NSC86314]	212.5
Clc1cc(OCc2nnc3sc(Cc4ccccc4)nn23)c(Cl)cc1OCc1nnc2sc(Cc3ccccc3)nn12 [NSC716898]	235.8
Clc1nc2n[nH]nc2nc1Cl [NSC157058]	257.4
Fc1cc(C2=Nn3c(COc4ccc(Cl)cc4Cl)nnc3S/C2=C\c2ccc(-c3ccc(Cl)cc3)o2)c(Cl)cc1Cl [NSC719147]	160.3
CC(=O)C(N=Nc1ccc(S(=O)(=O)Nc2ccccn2)cc1)C(=O)Nc1ccc(Cl)cc1 (stereo not shown) [NSC134189]	132.3
Clc1ccc(-c2nn3c(COc4cccc(OCc5nnc6sc(-c7ccc(Cl)cc7)nn56)c4)nnc3s2)cc1 [NSC716903]	127.8
Clc1ccc(-c2nn3c(COc4cc(Cl)c(OCc5nnc6sc(-c7ccc(Cl)cc7)nn56)cc4Cl)nnc3s2)cc1 [NSC716897]	178.4
